- method-description: chemical genetic growth profiling, strain panel (AID 1159580);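 note: tested at 20 µM; growth read once vehicle control cultures reached saturation at 30 °C; 1 = growth at the plate median or of vehicle wells; lower values mean less growth of the strain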
- measurement-conditions: S. cerevisiae deletion strains, growth OD, locus YHR079C, strain IRE1 (second series), stronger effect = lower value
The campaign covered roughly 5,500 compounds. About 2,000 (36%) were called active. About 18% were inconclusive and are not listed. This is one part of the list.

| compound | normalized growth |
| --- | --- |
| NCCc1cnc[nH]1 | 1.01 |
| O=C1c2ccc(O)cc2O[C@H](c2cc(O)c(O)c(O)c2)[C@H]1O | 1.02 |
| NS(=O)(=O)c1cc2c(cc1Cl)NC=NS2(=O)=O | 1 |
| CNC(=O)O/N=C(\C)SC | 0.993 |
| Cc1ccc(S(=O)(=O)NC(=O)NN2CCCCCC2)cc1 | 0.988 |
| CC(=O)S[C@@H]1CC2=CC(=O)CC[C@]2(C)[C@H]2CC[C@@]3(C)[C@@H](CC[C@@]34CCC(=O)O4)C12 (stereo partly drawn) | 1.03 |
| CN(C)CCOC(c1ccc(Cl)cc1)c1ccccn1 (stereo not drawn) | 1.01 |
| NCCCS(=O)(=O)O | 0.989 |
| O=S(=O)(O)CCS | 0.989 |
| CCCCNC(=O)NS(=O)(=O)c1ccc(C)cc1 | 0.98 |
| O=C(OCC(O)CO)c1ccccc1Nc1ccnc2cc(Cl)ccc12 (stereo not drawn) | 0.989 |
| COc1ccc2c(c1)OC1(O)COc3cc(OC)c(OC)cc3C1=C2 (stereo not drawn) | 0.972 |
| Cc1ccccc1C(OCCN(C)C)c1ccccc1 (stereo not drawn) | 1.02 |

====

- method-description: chemical genetic growth profiling, strain panel (AID 1159580);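 note: tested at 20 µM; growth read once vehicle control cultures reached saturation at 30 °C; 1 = growth at the plate median or of vehicle wells; lower values mean less growth of the strain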
- measurement-conditions: S. cerevisiae deletion strains, growth OD, locus YAL040C, strain CLN3, stronger effect = lower value
Screen size: about 5,500 compounds; about 2,000 (36%) were called active. Not shown: some 18% with an inconclusive outcome. The list shows a part of the results.

| compound | normalized growth |
| --- | --- |
| CCCCCCCC/C=C\CCCCCCCC(=O)NCCc1ccc(O)c(O)c1 | 1.01 |
| COc1cc(C(O)CO)ccc1O (stereo not given) | 0.993 |
| O=C(/C=C/c1ccc(O)c(O)c1)OCCc1ccccc1 | 1.08 |
| O=C1NC(=O)C(c2ccccc2)(c2ccccc2)N1 | 1.1 |
| CC(=O)c1c(O)c(C)c(O)c(Cc2c(O)c3c(c(C(=O)/C=C/c4ccccc4)c2O)OC(C)(C)C=C3)c1O | 1 |
| C=CC1(C)CC(=O)C2(O)C(C)(O1)C(OC(C)=O)C(O)C1C(C)(C)CCC(O)C12C (stereo not given) | 0.968 |
| CCCCCCCCC(=O)NCc1ccc(O)c(OC)c1 | 0.982 |
| CN1C2CCC1CC(OC(=O)c1cc(Cl)cc(Cl)c1)C2 (stereo not given) | 1 |
| Fc1ccc(C(OCCN2CCN(CCCc3ccccc3)CC2)c2ccc(F)cc2)cc1 | 1.02 |
| O=C(O)CCCc1ccc(N(CCCl)CCCl)cc1 | 1.1 |
| Clc1cccc(N2CCNCC2)c1 | 0.974 |
| NC(Cc1ccc(N(CCCl)CCCl)cc1)C(=O)O (stereo not given) | 0.995 |
| CC(C)NC[C@H](O)COc1cccc2[nH]ccc12 | 0.984 |
| N[C@H]1CONC1=O | 1.08 |
| c1ccc2c(c1)CCCC2C1=NCCN1 (stereo not given) | 1.05 |
| Nc1cc(=O)[nH]c(N)n1 | 1.01 |
| Cc1sc2ccccc2c1CC1=NCCN1 | 0.972 |
| Cc1ccc(C(=O)Nc2ccc(S(=O)(=O)O)c3cc(S(=O)(=O)O)cc(S(=O)(=O)O)c23)cc1NC(=O)c1cccc(NC(=O)Nc2cccc(C(=O)Nc3cc(C(=O)Nc4ccc(S(=O)(=O)O)c5cc(S(=O)(=O)O)cc(S(=O)(=O)O)c45)ccc3C)c2)c1 | 0.968 |
| CNC(=O)[C@H]1O[C@@H](n2cnc3c(NCc4cccc(I)c4)ncnc32)C(O)[C@H]1O (stereo not given in full) | 0.988 |
| CCCCCCN(CCCCCC)C(=O)Cc1c(-c2ccc(F)cc2)[nH]c2ccccc12 | 1.03 |
| N=C(N)SCCc1cnc[nH]1 | 0.985 |
| O=C1c2c(O)cc(O)cc2OC(c2ccc(O)c(O)c2)C1O (stereo not given) | 1.04 |
| Fc1ccc(C(OCCCc2cnc[nH]2)c2ccc(F)cc2)cc1 | 1.01 |
| Oc1cc(O)c2c(c1)OC(c1ccc(O)c(O)c1)C(O)C2 (stereo not given) | 1.01 |
| CC1CC2C3CCC4=CC(=O)C=CC4(C)C3(F)C(O)CC2(C)C1(O)C(=O)CO (stereo not given) | 0.987 |
| O=C(O)/C=C/C(=O)O | 1.02 |
| CC(C)(Sc1ccc(CCN(CCCCC2CCCCC2)C(=O)NC2CCCCC2)cc1)C(=O)O | 1.06 |
| Cc1ccc(S(=O)(=O)NC(=O)NN2CCCCCC2)cc1 | 1.05 |
| O=C(O)[C@@H]1CCN1 | 1.01 |
| CCCCCCCCCCCCCCCCCCNC(=O)OCC(COP(=O)([O-])OCC[n+]1ccsc1)OC (stereo not given) | 1 |
| O=C1CCC(N2C(=O)c3ccccc3C2=O)C(=O)N1 (stereo not given) | 1.01 |
| c1ccc(CCCN2CCN(CCOC(c3ccccc3)c3ccccc3)CC2)cc1 | 0.967 |
| CCCCNC(=O)NS(=O)(=O)c1ccc(C)cc1 | 0.997 |
| CN1C2CCC1CC(OC(c1ccccc1)c1ccc(Cl)cc1)C2 (stereo not given) | 1.01 |
| COC(=O)C1C(O)CCC2CN3CCc4c([nH]c5ccccc45)C3CC21 (stereo not given) | 0.997 |
| CC#C[C@]1(O)CC[C@H]2[C@@H]3CCC4=CC(=O)CCC4=C3[C@@H](c3ccc(N(C)C)cc3)C[C@@]21C | 0.978 |
| O=C(c1ccc(OCCN2CCCCC2)cc1)c1c(-c2ccc(O)cc2)sc2cc(O)ccc12 | 1.02 |
| CN1CC[C@@]2(C)c3cc(O)ccc3N(C)C12 (stereo not given in full) | 0.971 |
| CC[C@@H]1C=C/C=C/C[C@H](C)[C@@H](O)[C@](C)(O)C(=O)[C@H](C)[C@@H](O)[C@H](C)C(=O)[C@H](C)[C@@H](O)[C@H](C)/C=C/C(=O)O[C@H]2[C@@H](C)[C@@H](CC1)O[C@@]1(CC[C@@H](C)[C@@H](CC(C)O)O1)[C@@H]2C (stereo not given in full) | 0.989 |
| COc1cc(CC(=O)O)ccc1O | 1.07 |
| CC12NC(Cc3ccccc31)c1ccccc12 (stereo not given) | 0.983 |
| CN1C2CCC1CC(OC(c1ccccc1)c1ccccc1N)C2 (stereo not given) | 1.01 |
| OCc1cc(C(O)CNCCCCCCOCCCCc2ccccc2)ccc1O (stereo not given) | 1.07 |
| Cc1ccccc1C(OCCN(C)C)c1ccccc1 (stereo not given) | 0.992 |
| NCCC(=O)NCCc1cnc[nH]1 | 0.98 |
